Test system: POLCO
TEST DETAILS: Post-emergence action against POLCO
Type: in vivo, Polygonum convolvulus
CONDITIONS USED: Fallopia convolvulus, 504 h; post-emergence, dosage 80 g/ha
ASSAY READOUT: pest or weed control at 80 g/ha (%)
Give bare numbers, in %.

| COMPOUND | pest or weed control at 80 g/ha [%] |
| --- | --- |
| CSc1c(C(=O)Nc2nnnn2C)ccc(C(F)F)c1C(C)=O [1-65] | 100 |

The following compounds each have a reported value; give each one's pest or weed control at 80 g/ha.
1. CC(=O)c1c(C(F)(F)F)ccc(C(=O)Nc2nnnn2C)c1Br [1-195]
2. Cn1nnnc1NC(=O)c1ccc(C(F)F)c(C(=O)C2CC2)c1Cl [1-168]
3. Cn1nnnc1NC(=O)c1ccc(C(F)(F)F)c(C(=O)C2CC2)c1Cl [1-141]
4. CC(=O)c1c(C)ccc(C(=O)Nc2nnnn2C)c1C [1-1]
5. CCCC(=O)c1c(C(F)(F)F)ccc(C(=O)Nc2nnnn2C)c1C [1-16]
6. CC(=O)c1c(C(F)(F)F)ccc(C(=O)Nc2nnnn2C)c1Cl [1-137]

[90, 100, 100, 80, 100, 100]

* * *

System: SETVI
TEST DETAILS: Post-emergence action against SETVI
Type: in vivo, Setaria viridis
CONDITIONS USED: Setaria viridis, 504 h; post-emergence, dosage 80 g/ha, visual assessment about 3 weeks after treatment vs untreated controls; read-out: Post-emergence action against SETVI (herbicidal action in percent)
ASSAY READOUT: pest or weed control at 80 g/ha (%)
Numbers only, in %.

Below, 10 molecules whose answers are already recorded.
| COMPOUND | UNIT LABEL | ENDPOINT VALUE |
| --- | --- | --- |
| CCCC(=O)c1c(C(F)(F)F)ccc(C(=O)Nc2nnnn2C)c1C | % | 90 |
| Cn1nnnc1NC(=O)c1ccc(C(F)(F)F)c(C(=O)C(F)(F)F)c1Cl | % | 80 |
| CSc1c(C(=O)Nc2nnnn2C)ccc(C(F)(F)F)c1C(C)=O | % | 100 |
| CCn1nnnc1NC(=O)c1ccc(C(F)(F)F)c(C(C)=O)c1Cl | % | 100 |
| Cc1c(C(=O)Nc2nnnn2C)ccc(C(F)(F)F)c1C(=O)C1CC1 | % | 100 |
| COc1c(C(=O)Nc2nnnn2C)ccc(C(F)(F)F)c1C(C)=O | % | 80 |
| CC(=O)c1c(C(F)(F)F)ccc(C(=O)Nc2nnnn2C)c1Br | % | 90 |
| CSc1ccc(C(=O)Nc2nnnn2C)c(Cl)c1C(=O)C1CC1 | % | 100 |
| CSc1c(C(=O)Nc2nnnn2C)ccc(C(F)(F)F)c1C(=O)C1CC1 | % | 100 |
| CSc1c(C(=O)Nc2nnnn2C)ccc(C(F)F)c1C(=O)C1CC1 | % | 100 |

The following molecules each have a reported value; give each one's pest or weed control at 80 g/ha.
1. CCn1nnnc1NC(=O)c1ccc(C(F)(F)F)c(C(=O)C2CC2)c1C
2. CCC(=O)c1c(Cl)ccc(C(=O)Nc2nnnn2C)c1Cl
3. CC(=O)C(=O)c1c(C(F)(F)F)ccc(C(=O)Nc2nnnn2C)c1Cl
4. CSc1c(C(=O)Nc2nnnn2C)ccc(C(F)F)c1C(C)=O

100
90
100
100

* * *

System: PHBPU
TEST DETAILS: Pre-emergence action against PHBPU
Assay type: in vivo, Pharbitis purpurea
CONDITIONS USED: Dosage 320 g/ha, pre-emergence
ASSAY READOUT: Pre-emergence action against PHBPU (%)
Numbers only, in %.

| COMPOUND | Pre-emergence action against PHBPU (%) |
| --- | --- |
| CCCn1nnnc1NC(=O)c1ccc(I)c(C(C)=O)c1Cl | 100 |
| CCCn1nnnc1NC(=O)c1ccc(S(C)(=O)=O)c(C(C)=O)c1C | 90 |

The following compounds each have a reported value; give each one's Pre-emergence action against PHBPU.
1. CCCn1nnnc1NC(=O)c1ccc(C)c(C(=O)C2CC2)c1Cl
2. CCn1nnnc1NC(=O)c1ccc(SC)c(C(C)=O)c1Cl
3. CCn1nnnc1NC(=O)c1ccc(C(F)F)c(C(C)=O)c1SC
4. CCn1nnnc1NC(=O)c1ccc(C(F)(F)F)c(C(C)=O)c1SC
5. Cn1nnnc1NC(=O)c1ccc(C(F)(F)F)c(C(=O)CCl)c1Cl
6. CCCn1nnnc1NC(=O)c1ccc(C(F)F)c(C(=O)C2CC2)c1Cl
7. CCCn1nnnc1NC(=O)c1ccc(C(F)(F)F)c(C(C)=O)c1C

1. 90
2. 80
3. 100
4. 80
5. 100
6. 100
7. 90

The following compounds each have a reported value; give each one's Pre-emergence action against PHBPU.
1. CC1CC1C(=O)c1c(C(F)(F)F)ccc(C(=O)Nc2nnnn2C)c1Cl (centres unmarked)
2. CCCC(=O)c1c(C(F)(F)F)ccc(C(=O)Nc2nnnn2CCC)c1C
3. CCn1nnnc1NC(=O)c1ccc(C(F)(F)F)c(C(=O)C2CCC2)c1SC
4. CCn1nnnc1NC(=O)c1ccc(C(F)(F)F)c(C(C)=O)c1Br

1. 100
2. 80
3. 80
4. 80

The following compounds each have a reported value; give each one's Pre-emergence action against PHBPU.
1. CCn1nnnc1NC(=O)c1ccc(C(F)(F)F)c(C(=O)C2CC2)c1C1CC1
2. CCn1nnnc1NC(=O)c1ccc(C(F)(F)F)c(C(=O)COC)c1Cl
3. CCn1nnnc1NC(=O)c1ccc(S(C)(=O)=O)c(C(C)=O)c1Cl
4. CCCn1nnnc1NC(=O)c1ccc(C(F)F)c(C(C)=O)c1Cl
5. CCCn1nnnc1NC(=O)c1ccc(S(C)(=O)=O)c(C(=O)C2CC2)c1Cl
6. COCC(=O)c1c(C(F)(F)F)ccc(C(=O)Nc2nnnn2C)c1Cl
7. CCCn1nnnc1NC(=O)c1ccc(C(F)(F)F)c(C(=O)C2CC2)c1Br

[100, 100, 90, 90, 90, 100, 90]

The following compounds each have a reported value; give each one's Pre-emergence action against PHBPU.
1. CCCC(=O)c1c(C(F)(F)F)ccc(C(=O)Nc2nnnn2CC)c1C
2. CCCn1nnnc1NC(=O)c1ccc(C(F)(F)F)c(C(=O)C2CC2)c1OC
3. CCn1nnnc1NC(=O)c1ccc(C(F)(F)F)c(C(=O)c2cc(F)cc(F)c2)c1Cl

90
80
80

The following compounds each have a reported value; give each one's Pre-emergence action against PHBPU.
1. CCn1nnnc1NC(=O)c1ccc(S(C)(=O)=O)c(C(=O)C2CC2)c1C
2. CCCn1nnnc1NC(=O)c1ccc(C(F)(F)F)c(C(=O)CC)c1C

1: 90; 2: 80

The following compounds each have a reported value; give each one's Pre-emergence action against PHBPU.
1. CCn1nnnc1NC(=O)c1ccc(C(F)(F)F)c(C(=O)C2CC2C)c1Cl (centres unmarked)
2. CCCn1nnnc1NC(=O)c1ccc(C(F)(F)F)c(C(=O)C(F)F)c1Cl
3. CCn1nnnc1NC(=O)c1ccc(C(F)(F)F)c(C(=O)C(C)C)c1Cl
4. CCCn1nnnc1NC(=O)c1ccc(C(F)F)c(C(=O)C2CC2)c1SC
5. CCCn1nnnc1NC(=O)c1ccc(C(F)(F)F)c(C(C)=O)c1OC
6. CCn1nnnc1NC(=O)c1ccc(C(F)F)c(C(C)=O)c1Cl
7. CCn1nnnc1NC(=O)c1ccc(C(F)(F)F)c(C(=O)C2CC2)c1Cl

1. 90
2. 80
3. 100
4. 100
5. 80
6. 90
7. 80

* * *

Task for the reader: assign each of the following compounds its reported pest or weed control at 80 g/ha.
Test system: POLCO
TEST DETAILS: Post-emergence action against POLCO
Assay type: in vivo, Polygonum convolvulus
CONDITIONS USED: Fallopia convolvulus, 504 h; post-emergence, dosage 80 g/ha
One number for each entry, in %.

The following compounds each have a reported value; give each one's pest or weed control at 80 g/ha.
1. CSc1ccc(C(=O)Nc2nnnn2C)c(Cl)c1C(C)=O [1-121]
2. Cn1nnnc1NC(=O)c1ccc(C(F)(F)F)c(C(=O)C2CC2)c1C1CC1 [1-233]
3. CCC(=O)c1c(C(F)(F)F)ccc(C(=O)Nc2nnnn2C)c1Cl [1-138]

[80, 90, 80]

The following compounds each have a reported value; give each one's pest or weed control at 80 g/ha.
1. CC(=O)c1c(C(F)F)ccc(C(=O)Nc2nnnn2C)c1Cl [1-164]
2. CC(=O)c1c(I)ccc(C(=O)Nc2nnnn2C)c1Cl [1-192]
3. CSc1c(C(=O)Nc2nnnn2C)ccc(C(F)F)c1C(=O)C1CC1 [1-67]

1: 90; 2: 100; 3: 100
